// data source = ChEMBL document CHEMBL1649163

System: Staphylococcus aureus
Assay: Effect on growth in Staphylococcus aureus MN8 at 0.75 mM after 24 hrs (reference value: 100%)
Format: functional
Measure: Activity (%)
State the answer as a number, implicitly in %.

Compound: CC(=O)/C=C/C1=C(C)CCCC1(C)C
Readout value: 27.1
--
Compound: CC(C)=CCC/C(C)=C/CO
Readout value: 19.3
--
Compound: C=CC(C)(O)CCC=C(C)C (centres undefined)
Readout value: 121.6

Would you kindly look at the next entry?
Q: Sample C=CC(=C)CCC=C(C)C — what was its Activity?
Ans: 110.8
